# Tested on: Ba/F3 L858R/C797S cells
# procedure-details: Antiproliferative activity assay (CellTiter-Glo, 72 h)
# Format: cell-based
# measurement-setup: Mus musculus, BaF3, 72 h
# Experimental: After incubating the cells in a 5% CO2 incubator at 37° C. for 72 hours, 25 μL of CellTiter-Glo reagent (CTG) was added to each well and the plate was gently shaken and incubated in a 5% CO2 incubator at 37° C. (protected from light) for 30 minutes. […] was measured using the Envision reader.
metric: pIC50
Numbers only, as −log10 of the molar value.

### Prompt Form field: reported pIC50 of C=CC(=O)Nc1cc(Nc2nccc(-c3cn(C)c4ccccc34)n2)c(OC)cc1N(C)CCN(C)C [Osimertinib, osimertinib, reference compound]
### Response 5.90

Entry source: patent US20260069592A1
